- System: WA-OSEL cell line
- experiment-notes: Hematological cell line viability/apoptosis flow cytometry assay
- Assay type: cell-based
- settings: WA-OSEL (CLL); 120 h
observed-property: EC50 (nM)

• O=C1CC[C@H](N2C(=O)c3cccc(NCc4ccc(CN5CC(N6CCOCC6)C5)cc4F)c3C2=O)C(=O)N1 [Compound 1] = 112

---

- Test system: WA-C3-CD5+ cell line
- experiment-notes: Hematological cell line viability/apoptosis flow cytometry assay
- Type: cell-based
- settings: WA-C3-CD5+ (CLL); 120 h; read-out: % Viable Cells IC50
pIC50: −log10 of the molar value.
observed-property: pIC50

- O=C1CC[C@H](N2C(=O)c3cccc(NCc4ccc(CN5CC(N6CCOCC6)C5)cc4F)c3C2=O)C(=O)N1: 6.28
